- TEST TARGET: HDAC1 (Homo sapiens, UniProt Q13547)
- Construct: purchased BPS Bioscience #50061
- Sequence (Q13547 whole entry): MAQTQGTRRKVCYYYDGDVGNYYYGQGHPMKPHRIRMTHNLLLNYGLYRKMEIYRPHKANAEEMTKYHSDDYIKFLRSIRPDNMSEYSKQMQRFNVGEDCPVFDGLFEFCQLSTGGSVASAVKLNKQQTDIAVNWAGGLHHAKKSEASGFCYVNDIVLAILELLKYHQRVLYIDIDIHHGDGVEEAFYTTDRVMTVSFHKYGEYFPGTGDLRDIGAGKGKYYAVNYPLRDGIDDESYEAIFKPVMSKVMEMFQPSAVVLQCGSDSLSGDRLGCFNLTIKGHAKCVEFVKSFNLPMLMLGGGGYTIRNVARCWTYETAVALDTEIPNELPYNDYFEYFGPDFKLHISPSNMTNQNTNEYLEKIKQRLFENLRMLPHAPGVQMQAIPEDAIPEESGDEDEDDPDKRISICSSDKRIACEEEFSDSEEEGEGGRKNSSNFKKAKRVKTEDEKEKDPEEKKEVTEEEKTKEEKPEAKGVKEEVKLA
- TEST: Enzymatic HDAC fluorogenic assay (BPS Bioscience), HDAC1
- Type: biochemical
- CONDITION DESCRIPTION: 37 °C, 30 min incubation
REPORTED METRIC: IC50

Field request: IC50 | item: O=C(NO)c1ccc(CN2C(=O)SC(Cc3ccccc3)C2=O)cc1 (centres unmarked)
> 100000 nM

Field request: IC50 | item: C=CCC1SC(=O)N(Cc2ccc(C(=O)NO)cc2)C1=O (centres unmarked)
> 100000 nM

Field request: IC50 | item: CCCC1SC(=O)N(Cc2ccc(C(=O)NO)cc2)C1=O (centres unmarked)
> 100000 nM

Field request: IC50 | item: O=C(NO)c1ccc(CN2C(=O)CSC2=O)cc1
388 nM

Field request: IC50 | item: O=C(NO)c1cccc(CN2C(=O)CSC2=O)c1
> 50000 nM
